Record form. Attribute: inhibition. Fill in for each entry.
Assay: inhibitors of TNFa-induced NFkB p65 translocation, primary screen, imaging, HUVEC, MLSMR starter and 10KST1 sets (AID 438);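 further: compound added about 3h40 before a 20 min TNFalpha stimulation; signal is the nuclear over cytoplasmic p65 intensity ratio per well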
Details: HUVEC TNFa-induced p65 nuclear translocation; at 2 µM, stronger effect = higher value, 0% TNFa-plus-vehicle, 100% no-TNFa wells
The figure you give is taken to be in %; do not add the unit.

QUERY: Can you share its inhibition? I mean this compound: C=CCn1c(SCC(=O)Nc2cccc(OC)c2)nnc1-c1cccnc1
RESULT: -4.8

QUERY: Data request, read-out inhibition, for NC(=O)CSc1cn(CCNC(=O)c2cccs2)c2ccccc12
RESULT: -1.4

QUERY: # lookup: inhibition of CCC(C)NC(=O)c1cc(CC(C)C)on1 (stereo not given)
RESULT: 3.5

QUERY: Value lookup for inhibition; key = Fc1cccc(Cl)c1Cn1nnc2c(NCc3ccccn3)ncnc21
RESULT: -10.5

QUERY: Would you kindly share the measured inhibition for CCn1c(C)nc2cc(C(=O)OCCC(F)(F)F)ccc21 ?
RESULT: -9

QUERY: What value of inhibition has been recorded for this entry: COc1ccc(N2CCN(CCCNC(=O)C3(S(=O)(=O)c4ccc(Cl)cc4)CC3)CC2)cc1
RESULT: -6.2

QUERY: Given the compound COc1ccc2[nH]c(=O)c(CNC3CCCCC3)cc2c1 , what is its reported inhibition?
RESULT: 6.3

QUERY: Which inhibition value belongs to COc1ccccc1C(=O)OCn1nnc2ccccc2c1=O ?
RESULT: -21.1

QUERY: Would you mind telling me what inhibition value was observed for O=C(CSCc1ccccn1)Nc1ccccc1 ?
RESULT: -8

QUERY: Please report the recorded inhibition for CCOC(=O)Cc1csc(NC(=O)CN(C)S(=O)(=O)c2ccc3c(c2)CCC(=O)N3)n1 .
RESULT: 12.6

QUERY: Record request: inhibition value, item COc1ccc(Cn2nnnc2C(c2cc3cc(C)cc(C)c3[nH]c2=O)N2CCOCC2)cc1 (stereo not given)
RESULT: -12.9

QUERY: Consider the compound shown here: CC(=O)NS(=O)(=O)c1ccc(NC(=O)c2ccccc2F)cc1 What is its recorded inhibition?
RESULT: -3.9

QUERY: Which inhibition is listed for c1ccc(-n2cnc3cc(NCc4ccccn4)ccc32)cc1 ?
RESULT: -5.7

QUERY: Give the measured inhibition of CC(C)C(=O)Nc1ccc(C(=O)NCc2cccnc2)cc1 .
RESULT: 9.4

QUERY: Would you kindly share the measured inhibition for CC(=O)c1c(C)nn(C(C)CC(=O)O)c1C (stereo not given) ?
RESULT: -12.6

QUERY: Which inhibition is listed for COc1cccc(-c2cc(C(F)(F)F)nc(NCc3ccco3)n2)c1 ?
RESULT: 1.7

QUERY: Query (compound): CCOC(=O)N1CCN(c2c(NCC3CCN(Cc4cccc(C)c4)CC3)c(=O)c2=O)CC1 ; field requested: inhibition
RESULT: -2.7

QUERY: Fill blank: measured inhibition of the compound COCCn1c(SCC(=O)Nc2cccc(OC)c2)nnc1-c1ccccc1 is ____.
RESULT: 2.1

QUERY: Tell me the measured inhibition of CCCCn1c(=O)[nH]c(=O)c2c1nc(COc1ccc(C#N)cc1)n2CCC , please.
RESULT: 3.4

QUERY: What does the data say about its inhibition? Entry: CCOC(=O)c1ccc(NC(=O)Cn2cc3c(n2)CCC(C)C3)cc1 (stereo not given)
RESULT: -3.7

QUERY: Consider the compound shown here: N#CC1=C(N)OC(c2ccccc2)=C(C#N)C1c1ccc2c(c1)OCO2 (stereo not given) What is its recorded inhibition?
RESULT: -19.6

QUERY: Report inhibition for CCSc1nnc(NC(=O)CSc2nnc(Cc3cccn3C)n2-c2ccc(C)cc2)s1 please.
RESULT: -12.3

QUERY: Request the reported inhibition associated with Cc1ccc(NC(=O)c2cc(S(=O)(=O)N3CCC4(CC3)OCCO4)ccc2F)cc1
RESULT: -3.3

QUERY: Give its inhibition value. Item: CC1CCN(c2c(NCc3ccc(C(=O)N4c5ccccc5CC4C)cc3)c(=O)c2=O)CC1 (stereo not given)
RESULT: -5.7

QUERY: Reported inhibition, compound CCCn1c(N)c(C(=O)CSc2nnc(Cc3ccccc3)o2)c(=O)n(C)c1=O : ____
RESULT: 1

QUERY: Please look up its inhibition: CC(=O)OC(C(=O)NC1CCCCC1)c1ccncc1 (stereo not given)
RESULT: -8.1

QUERY: Endpoint output: inhibition of CCCCn1c(CN2CCN(c3ccccc3)CC2)nc2c1c(=O)n(C)c(=O)n2C . Value?
RESULT: -11.5

QUERY: Report inhibition for Cc1ccccc1Cn1ccc(NC(=O)c2onc(C)c2Cl)n1 please.
RESULT: -1.6

QUERY: Form field: reported inhibition of O=C(c1ccc(Cl)cc1)N1CCCCC(Sc2nnc(-c3ccc4c(c3)OCO4)o2)C1=O (stereo not given)
RESULT: -13.7

QUERY: If you can, please state the reported inhibition value of CC(NC(=O)C1CC1)C(c1cccs1)N1CCN(c2ccccc2)CC1 (stereo not given) .
RESULT: 4.2

QUERY: Consider the compound CC1CCN(C(=O)CCNS(=O)(=O)c2ccccc2)CC1 and give its measured inhibition.
RESULT: 0.4

QUERY: Fill in the blank: the reported inhibition of c1cc2c(cc1Nc1nc(-c3ccc4c(c3)OCO4)cs1)OCCO2 is ____.
RESULT: 0.4

QUERY: Given the entry COc1ccc(CC(NC(C)=O)C(=O)N2CCN(C(=O)N(C(C)C)C(C)C)CC2)cc1 (stereo not given) , report its measured inhibition.
RESULT: -4

QUERY: I'd like to know its inhibition. The compound in question is CC(C)C[C@H](NC(=O)Nc1cccc(C(F)(F)F)c1)C(=O)O
RESULT: -9.8

QUERY: What does the data say about its inhibition? Entry: Cc1ccc(-c2cc(C(F)F)nc(NCC3CCCO3)n2)cc1 (stereo not given)
RESULT: 1.4

QUERY: What measured inhibition goes with Cc1c(C(=O)OC2CCCCC2)[nH]c2c1C(=O)CC(C)(C)C2 ?
RESULT: -8.9

QUERY: Item O=C(CC(=O)c1cc(Cl)ccc1O)c1ccccc1 has what recorded inhibition?
RESULT: 3.8

QUERY: Entry CCN(C(=O)COC(=O)c1cc(C)n(-c2ccc(F)cc2)c1C)C1CCS(=O)(=O)C1 (stereo not given) : reported inhibition = ?
RESULT: -3.4

QUERY: Fill blank: measured inhibition of the compound O=C(c1ccccc1-c1nc(-c2ccccc2)no1)N1CCCC1 is ____.
RESULT: -8.6

QUERY: Item under review: Cc1cc2nc(C3CCN(CC4COc5ccccc5O4)CC3)[nH]c2cc1C (stereo not given) . Reported inhibition?
RESULT: -8.3

QUERY: # inhibition lookup, item CC(NC(=O)COc1ccccc1)C(=O)NC1=NCCS1 (stereo not given)
RESULT: 2

QUERY: Fill blank: measured inhibition of the compound COCCn1nnnc1CN1CCC(Cc2ccccc2)CC1 is ____.
RESULT: -16.4

QUERY: Entry under review: COc1ccc(-c2cc(O)cc(O)c2)cc1 . Reported inhibition?
RESULT: -10.3

QUERY: Item CCOC(=O)CC(=O)Nc1c(C)cc(C)cc1C has what recorded inhibition?
RESULT: 7.5

QUERY: Which measured inhibition value corresponds to Cc1cc(NC(=O)COc2cccc(Oc3ccccc3)c2)no1 ?
RESULT: -0.9

These data points were gathered from PubChem BioAssay.
